B1: library; a variant is named by its letters at N, in order (parent)
chain: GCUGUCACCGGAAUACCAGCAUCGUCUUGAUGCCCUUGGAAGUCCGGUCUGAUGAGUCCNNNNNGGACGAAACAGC

# Variants of: B1
# MEASUREMENT_DESCRIPTION: FACS-Seq fitted mean relative fluorescence mCherry/BFP without ligand (log10 relative fluorescence); higher = higher reporter protein expression
# CONDITION_SET: HEK293T, ligand present: no
READOUT: FACS-Seq fitted mean (log10)
The response must contain the number and no unit.

Please review the following examples before continuing.
Name the reported FACS-Seq fitted mean (log10) value associated with the variant GCUGUCACCGGAAUACCAGCAUCGUCUUGAUGCCCUUGGAAGUCCGGUCUGAUGAGUCCAGGUCGGACGAAACAGC [AGGUC] 0.52

Name the reported FACS-Seq fitted mean (log10) value associated with the variant GCUGUCACCGGAAUACCAGCAUCGUCUUGAUGCCCUUGGAAGUCCGGUCUGAUGAGUCCUCCCGGGACGAAACAGC [UCCCG] 1.07

Name the reported FACS-Seq fitted mean (log10) value associated with the variant GCUGUCACCGGAAUACCAGCAUCGUCUUGAUGCCCUUGGAAGUCCGGUCUGAUGAGUCCUAGGAGGACGAAACAGC [UAGGA] 0.042

Name the reported FACS-Seq fitted mean (log10) value associated with the variant GCUGUCACCGGAAUACCAGCAUCGUCUUGAUGCCCUUGGAAGUCCGGUCUGAUGAGUCCUAAGUGGACGAAACAGC [UAAGU] 0.651

New cases:
Name the reported FACS-Seq fitted mean (log10) value associated with the variant GCUGUCACCGGAAUACCAGCAUCGUCUUGAUGCCCUUGGAAGUCCGGUCUGAUGAGUCCACCUAGGACGAAACAGC [ACCUA] 1.18

Name the reported FACS-Seq fitted mean (log10) value associated with the variant GCUGUCACCGGAAUACCAGCAUCGUCUUGAUGCCCUUGGAAGUCCGGUCUGAUGAGUCCCCGGCGGACGAAACAGC [CCGGC] 0.695

Name the reported FACS-Seq fitted mean (log10) value associated with the variant GCUGUCACCGGAAUACCAGCAUCGUCUUGAUGCCCUUGGAAGUCCGGUCUGAUGAGUCCUGUACGGACGAAACAGC [UGUAC] 0.923

Name the reported FACS-Seq fitted mean (log10) value associated with the variant GCUGUCACCGGAAUACCAGCAUCGUCUUGAUGCCCUUGGAAGUCCGGUCUGAUGAGUCCAACCCGGACGAAACAGC [AACCC] 0.867
